Molecular target: UniProt:P08908
Assay: Agonist activity at recombinant human 5HT1A receptor expressed in human HeLa cell membranes assessed as stimulation of [35S]GTPgammaS binding up to 10 uM preincubated for 20 mins followed by [35S]GTPgammaS addition measured after 30 mins by liquid scintillation counting method relative to 5-HT
Format: functional
Is Emax at least 70%? Then true (1). If not, false (0).

# molecule, target or test system, assigned label
data = [
    ("COCOc1ccccc1OCCNCC1COCC(c2ccccc2)(c2ccccc2)O1 (racemic)", "UniProt:P08908", "false (0)"),
    ("Oc1ccccc1OCCNCC1COCC(c2ccccc2)(c2ccccc2)O1 (racemic)", "UniProt:P08908", "false (0)"),
    ("COc1ccccc1OCCNC[C@@H]1COC[C@H](c2ccccc2)O1 (racemic)", "UniProt:P08908", "true (1)"),
    ("COc1ccccc1OCCNC[C@@H]1CO[C@H](c2ccccc2)CO1 (racemic)", "UniProt:P08908", "true (1)"),
    ("Cc1ccccc1OCCNCC1COCC(c2ccccc2)(c2ccccc2)O1 (racemic)", "UniProt:P08908", "false (0)"),
    ("Clc1ccccc1OCCNCC1COCC(c2ccccc2)(c2ccccc2)O1 (racemic)", "UniProt:P08908", "false (0)"),
    ("c1ccc(C2(c3ccccc3)COCC(CNCCOc3ccccn3)O2)cc1 (racemic)", "UniProt:P08908", "false (0)"),
]

###

Target: 5-hydroxytryptamine receptor 1A (Homo sapiens)
Sequence (whole entry): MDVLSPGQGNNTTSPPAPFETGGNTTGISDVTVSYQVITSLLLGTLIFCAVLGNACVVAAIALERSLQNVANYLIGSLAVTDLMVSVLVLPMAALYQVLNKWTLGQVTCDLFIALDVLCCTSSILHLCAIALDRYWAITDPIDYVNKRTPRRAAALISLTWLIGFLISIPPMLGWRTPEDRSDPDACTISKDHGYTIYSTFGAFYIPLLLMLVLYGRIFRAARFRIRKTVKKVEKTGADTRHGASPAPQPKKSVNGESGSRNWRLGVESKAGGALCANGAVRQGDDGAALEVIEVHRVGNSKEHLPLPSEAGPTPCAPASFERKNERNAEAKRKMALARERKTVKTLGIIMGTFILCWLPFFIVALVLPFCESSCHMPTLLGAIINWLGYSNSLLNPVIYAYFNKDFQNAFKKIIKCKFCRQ
Assay: Agonist activity at recombinant human 5HT1A receptor expressed in human HeLa cell membranes assessed as stimulation of [35S]GTPgammaS binding preincubated for 20 mins followed by [35S]GTPgammaS addition measured after 30 mins by liquid scintillation counting method
Format: functional
Entries and their pD2
measure: pD2

# compound, target or test system, measure, measured value
measured = [
    ("Clc1ccccc1OCCNCC1COCC(c2ccccc2)(c2ccccc2)O1 (racemic)", "5-hydroxytryptamine receptor 1A (Homo sapiens)", "pD2", 8.7),
    ("COc1cccc(OC)c1OCCNC[C@H]1COCC(c2ccccc2)(c2ccccc2)O1", "5-hydroxytryptamine receptor 1A (Homo sapiens)", "pD2", 8.3),
    ("COc1ccccc1OCCNC[C@@H]1COCC(c2ccccc2)(c2ccccc2)O1", "5-hydroxytryptamine receptor 1A (Homo sapiens)", "pD2", 7.7),
    ("COc1ccccc1OCCNC[C@@H]1CO[C@H](c2ccccc2)CO1 (racemic)", "5-hydroxytryptamine receptor 1A (Homo sapiens)", "pD2", 7.88),
]

###

Entries and their pKi
Biological target: UniProtKB P14416
Sequence (P14416 whole entry): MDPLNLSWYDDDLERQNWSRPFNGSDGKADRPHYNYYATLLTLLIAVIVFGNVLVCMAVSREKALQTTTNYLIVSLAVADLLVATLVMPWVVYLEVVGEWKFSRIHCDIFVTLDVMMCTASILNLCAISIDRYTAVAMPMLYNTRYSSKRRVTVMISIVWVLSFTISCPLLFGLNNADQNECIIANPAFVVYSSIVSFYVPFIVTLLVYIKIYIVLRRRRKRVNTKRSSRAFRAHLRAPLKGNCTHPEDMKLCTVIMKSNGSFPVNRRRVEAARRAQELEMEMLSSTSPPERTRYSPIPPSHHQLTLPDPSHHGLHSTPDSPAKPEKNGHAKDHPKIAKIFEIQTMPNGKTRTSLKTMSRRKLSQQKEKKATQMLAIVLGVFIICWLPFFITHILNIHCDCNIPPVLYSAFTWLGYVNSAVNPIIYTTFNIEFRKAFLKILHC
Assay: Displacement of [3H]N-methylspiperone from recombinant human D2 receptor expressed in HEK293 cell membranes after 1 hr by liquid scintillation counting method
pKi: −log10 of the molar value.
measure: pKi

# compound, measured value
data = [
    ("COc1ccccc1OCCNCC1COCC(c2ccccc2)(c2ccccc2)O1 (racemic)", 7.91),
    ("Oc1ccccc1OCCNCC1COCC(c2ccccc2)(c2ccccc2)O1 (racemic)", 7.81),
    ("COCOc1ccccc1OCCNCC1COCC(c2ccccc2)(c2ccccc2)O1 (racemic)", 6.98),
]

###

Biological target: 5-hydroxytryptamine receptor 1A (Homo sapiens) (UniProt P08908)
Experiment: Agonist activity at recombinant human 5HT1A receptor expressed in human HeLa cell membranes assessed as stimulation of [35S]GTPgammaS binding preincubated for 20 mins followed by [35S]GTPgammaS addition measured after 30 mins by liquid scintillation counting method
Format: functional
measure: pD2

# molecule, measured value
records = [
    ("COCOc1ccccc1OCCNCC1COCC(c2ccccc2)(c2ccccc2)O1 (racemic)", 9.41),
    ("c1ccc(C2(c3ccccc3)COCC(CNCCOc3ccccn3)O2)cc1 (racemic)", 8.02),
    ("COc1cccc(OC)c1OCCNCC1COCC(c2ccccc2)(c2ccccc2)O1 (racemic)", 8.28),
    ("COc1ccccc1OCCNCC1COCC(c2ccccc2)(c2ccccc2)O1 (racemic)", 9.4),
    ("O=[N+]([O-])c1ccccc1OCCNCC1COCC(c2ccccc2)(c2ccccc2)O1 (racemic)", 8.93),
]

###

Entries and their pKi
Molecular target: Alpha-1A adrenergic receptor (Homo sapiens, UniProt P35348)
Sequence (P35348 whole entry): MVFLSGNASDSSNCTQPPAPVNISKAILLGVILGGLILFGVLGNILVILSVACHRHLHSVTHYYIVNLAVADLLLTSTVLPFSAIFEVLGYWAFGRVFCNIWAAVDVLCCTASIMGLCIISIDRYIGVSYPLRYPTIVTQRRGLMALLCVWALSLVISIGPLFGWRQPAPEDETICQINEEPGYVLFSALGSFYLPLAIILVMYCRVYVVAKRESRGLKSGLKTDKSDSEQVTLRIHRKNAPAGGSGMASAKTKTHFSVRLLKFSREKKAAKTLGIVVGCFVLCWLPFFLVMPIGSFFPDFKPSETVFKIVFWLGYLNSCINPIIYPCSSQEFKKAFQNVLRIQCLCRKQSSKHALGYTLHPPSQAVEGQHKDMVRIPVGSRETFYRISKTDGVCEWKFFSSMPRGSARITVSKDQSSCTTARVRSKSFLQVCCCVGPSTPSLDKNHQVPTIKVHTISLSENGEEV
Assay: Displacement of [3H]prazosin from recombinant human alpha-1a adrenergic receptor expressed in CHO cell membranes after 30 mins by liquid scintillation counting method
pKi: −log10 of the molar value.

# compound, pKi
measured = [
    ("Clc1ccccc1OCCNCC1COCC(c2ccccc2)(c2ccccc2)O1 (racemic)", 6.94),
    ("COCOc1ccccc1OCCNCC1COCC(c2ccccc2)(c2ccccc2)O1 (racemic)", 6.55),
    ("Oc1ccccc1OCCNCC1COCC(c2ccccc2)(c2ccccc2)O1 (racemic)", 6.71),
    ("Cc1ccccc1OCCNCC1COCC(c2ccccc2)(c2ccccc2)O1 (racemic)", 6.77),
    ("O=[N+]([O-])c1ccccc1OCCNCC1COCC(c2ccccc2)(c2ccccc2)O1 (racemic)", 6.93),
    ("c1ccc(C2(c3ccccc3)COCC(CNCCOc3ccccn3)O2)cc1 (racemic)", 6.81),
]

###

Biological target: Alpha-1B adrenergic receptor (Homo sapiens, UniProt P35368)
Sequence (P35368 whole entry): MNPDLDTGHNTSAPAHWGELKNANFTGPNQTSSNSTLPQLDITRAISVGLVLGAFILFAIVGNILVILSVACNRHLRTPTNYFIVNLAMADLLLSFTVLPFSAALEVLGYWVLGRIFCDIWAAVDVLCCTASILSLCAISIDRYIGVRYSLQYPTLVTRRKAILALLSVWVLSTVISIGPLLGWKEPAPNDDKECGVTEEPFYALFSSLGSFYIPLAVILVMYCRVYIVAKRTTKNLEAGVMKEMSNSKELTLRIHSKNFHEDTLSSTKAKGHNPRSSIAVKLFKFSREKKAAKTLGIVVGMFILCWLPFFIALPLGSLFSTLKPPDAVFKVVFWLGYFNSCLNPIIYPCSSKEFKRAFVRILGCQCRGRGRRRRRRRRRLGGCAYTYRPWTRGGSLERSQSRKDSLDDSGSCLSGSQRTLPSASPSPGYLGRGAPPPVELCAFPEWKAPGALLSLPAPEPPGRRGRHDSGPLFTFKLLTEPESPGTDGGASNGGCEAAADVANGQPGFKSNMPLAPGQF
Test: Displacement of [3H]prazosin from recombinant human alpha-1b adrenergic receptor expressed in CHO cell membranes after 30 mins by liquid scintillation counting method
pKi: −log10 of the molar value.
Entries and their pKi

# compound, target or test system, pKi
data = [
    ("Clc1ccccc1OCCNCC1COCC(c2ccccc2)(c2ccccc2)O1 (racemic)", "Alpha-1B adrenergic receptor (Homo sapiens, UniProt P35368)", 6.92),
    ("Cc1ccccc1OCCNCC1COCC(c2ccccc2)(c2ccccc2)O1 (racemic)", "Alpha-1B adrenergic receptor (Homo sapiens, UniProt P35368)", 6.75),
    ("COCOc1ccccc1OCCNCC1COCC(c2ccccc2)(c2ccccc2)O1 (racemic)", "Alpha-1B adrenergic receptor (Homo sapiens, UniProt P35368)", 6.54),
    ("Oc1ccccc1OCCNCC1COCC(c2ccccc2)(c2ccccc2)O1 (racemic)", "Alpha-1B adrenergic receptor (Homo sapiens, UniProt P35368)", 6.43),
    ("c1ccc(C2(c3ccccc3)COCC(CNCCOc3ccccn3)O2)cc1 (racemic)", "Alpha-1B adrenergic receptor (Homo sapiens, UniProt P35368)", 6.94),
    ("O=[N+]([O-])c1ccccc1OCCNCC1COCC(c2ccccc2)(c2ccccc2)O1 (racemic)", "Alpha-1B adrenergic receptor (Homo sapiens, UniProt P35368)", 6.60),
]

###

Molecular target: Alpha-1D adrenergic receptor (Homo sapiens, UniProt P25100)
Sequence (P25100 whole entry): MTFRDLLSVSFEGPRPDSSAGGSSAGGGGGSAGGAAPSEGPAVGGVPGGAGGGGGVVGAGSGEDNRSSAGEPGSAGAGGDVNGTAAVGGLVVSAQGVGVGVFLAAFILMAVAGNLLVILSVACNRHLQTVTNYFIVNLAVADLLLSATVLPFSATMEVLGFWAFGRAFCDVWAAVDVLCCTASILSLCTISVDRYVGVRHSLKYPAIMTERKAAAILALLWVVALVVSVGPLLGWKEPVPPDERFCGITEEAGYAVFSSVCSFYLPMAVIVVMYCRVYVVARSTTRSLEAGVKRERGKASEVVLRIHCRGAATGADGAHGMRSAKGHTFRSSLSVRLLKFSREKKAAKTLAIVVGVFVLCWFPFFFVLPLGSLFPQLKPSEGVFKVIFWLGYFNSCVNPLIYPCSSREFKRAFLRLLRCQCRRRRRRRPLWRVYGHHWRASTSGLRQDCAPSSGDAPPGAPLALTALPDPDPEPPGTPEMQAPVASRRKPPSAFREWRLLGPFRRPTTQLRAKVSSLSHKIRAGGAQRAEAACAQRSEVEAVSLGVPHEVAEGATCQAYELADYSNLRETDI
Test: Displacement of [3H]prazosin from recombinant human alpha-1d adrenergic receptor expressed in CHO cell membranes after 30 mins by liquid scintillation counting method
pKi: −log10 of the molar value.
measure: pKi

# molecule, measure, measured value
rows = [
    ("c1ccc(C2(c3ccccc3)COCC(CNCCOc3ccccn3)O2)cc1 (racemic)", "pKi", 8.26),
    ("O=C1CC2(CCCC2)CC(=O)N1CCN1CCN(c2ccccc2O)CC1", "pKi", 7.79),
    ("COCOc1ccccc1OCCNCC1COCC(c2ccccc2)(c2ccccc2)O1 (racemic)", "pKi", 7.10),
    ("Clc1ccccc1OCCNCC1COCC(c2ccccc2)(c2ccccc2)O1 (racemic)", "pKi", 8.23),
]

Data provenance: ChEMBL document CHEMBL4041469
